Sourced from patent US20030004172A1

Quick reference: melting point of the listed items.

Can you share its melting point? I mean this molecule: `COc1ccc(CNC(=O)c2cc3c(=O)n(CC#N)c(=O)n(C)c3s2)cc1`
180 to 183 °C

====

# TARGET SYSTEM: MMP-13CD (catalytic domain of collagenase-3) (Homo sapiens, UniProt P45452)
# METHOD SUMMARY: Thiopeptolide substrate hydrolysis inhibition assay, MMP-13CD
# Type: biochemical
# CONDITION DESCRIPTION: Table I; thiopeptolide substrate, HEPES pH 7.0, 22° C.; read-out: MMP-13CD IC50
Quick reference: IC50 of the listed items.
Entry rule: numbers only, all in nM.

The examples below pair each entry with its known result.
compound=Cn1c(=O)n(Cc2ccc(C(=O)OC(C)(C)C)cc2)c(=O)c2cc(C(=O)NCc3ccc(Br)cc3)sc21 unit_abbrev=nM measured=30000
compound=COc1cccc(CNC(=O)c2cc3c(=O)n(Cc4ccc5c(c4)OCC5)c(=O)n(C)c3s2)c1 unit_abbrev=nM measured=47.5
compound=CC(C)c1ccc(COC(=O)c2cc3c(=O)n(Cc4ccccc4)c(=O)n(C)c3s2)cc1 unit_abbrev=nM measured=32000

Query IC50 on MMP-13CD (catalytic domain of collagenase-3) (Homo sapiens, UniProt P45452) for `COc1cccc(CNC(=O)c2cc3c(=O)n(Cc4ccc(C(=O)O)cc4)c(=O)n(C)c3s2)c1`
2.05
